- System: HCC827 (lung)
- Run Description: Cell proliferation assay (ATPlite), HCC827
- Type: cell-based
- Assay Setup: 4 days, read-out: Growth inhibition (IC50)
Endpoint Name: IC50 (nM)
Use nM as the unit, but write only the number.

>  <Compound>
C=CCNC1=C2C[C@@H](C)C[C@H](OC)[C@H](O)[C@@H](C)/C=C(\C)[C@H](OC(N)=O)[C@@H](OC)/C=C\C=C(/C)C(=O)NC(=CC1=O)C2=O [Compound 17AAG, 17-allylamino-17-demethoxygeldanamycin, reference compound]

>  <IC50 [nM]>
56

$$$$

Now consider the entry below.
Input O=C1OCC/C=C/CC/C=C/C(=N\OCC(=O)N2CCCCC2)Cc2c(Cl)c(O)cc(O)c21 [1a parent] . Output IC50: 31

----------
- Test system: H1975 (lung)
- Run Description: Cell proliferation assay (ATPlite), H1975
- Type: cell-based
- Assay Setup: 4 days, read-out: Growth inhibition (IC50)
- Procedure: Cell proliferation assays were performed in various oncology cell lines, including breast cancer (BT474 and MDA-MB468), leukemia (K562 CML and MV4;11 AML), colon (HCT116), prostate cancer (PC-3), Tarceva- and Iressa-resistant non-small cell lung cancer (NSCLC, […] and H1975), gastric cancer (N87) as well as glioblastoma (A172) cell lines. […] IC50 was calculated by fitting the data using XLfit software.
Endpoint Name: pIC50
Please note pIC50 is a logarithmic value: minus log10 of concentration in mol/L. Answer with that number alone.

>  <Compound>
O=C1OCC/C=C/CC/C=C/C(=N\OCC(=O)N2CCCCC2)Cc2c(Cl)c(O)cc(O)c21 [1a parent]

>  <pIC50>
7.60

$$$$

Lab note: compound C=CCNC1=C2C[C@@H](C)C[C@H](OC)[C@H](O)[C@@H](C)/C=C(\C)[C@H](OC(N)=O)[C@@H](OC)/C=C\C=C(/C)C(=O)NC(=CC1=O)C2=O [Compound 17AAG, 17-allylamino-17-demethoxygeldanamycin, reference compound] tested on H1975 (lung); recorded pIC50 was 7.46

----------
- Test system: MDA-MB468 (breast)
- Run Description: Cell proliferation assay (ATPlite), MDA-MB468
- Format: cell-based
- Assay Setup: Homo sapiens, MDA-MB-468, 96 h, read-out: Growth inhibition (IC50)
Endpoint Name: pIC50
Please note pIC50 is a logarithmic value: minus log10 of concentration in mol/L. Answer with that number alone.

Lab note: compound `O=C1OCC/C=C/CC/C=C/C(=N\OCC(=O)N2CCCCC2)Cc2cc(OP(=O)(O)O)cc(O)c21` tested on MDA-MB468 (breast); recorded pIC50 was 7.43

----------
- Run Description: Solubility of phosphate prodrugs in organic- and aqueous-based media
- Assay type: physicochemical
- Assay Setup: 0.5% CMC/0.1% Tween-20/0.45% NaCl; read-out: Maximum observed solubility
Endpoint Name: solubility (mg/mL)
Use mg/mL as the unit, but write only the number.

Input `O=C1OCC/C=C/CC/C=C/C(=N\OCC(=O)N2CCCCC2)Cc2c(Cl)c(OP(=O)(O)O)cc(O)c21` . Output solubility: 87.5

----------
- Tested on: N87 (gastric)
- Run Description: Cell proliferation assay (ATPlite), N87
- Type: cell-based
- Assay Setup: 96 h, read-out: Growth inhibition (IC50)
Endpoint Name: IC50
Field note: include the unit after the figure.

Input O=C1OCC/C=C/CC/C=C/C(=N\OCC(=O)N2CCCCC2)Cc2cc(OP(=O)(O)O)cc(O)c21 [Compound 1b] . Output IC50: 19 nM
